molecular target: T1, recombinant extracellular domain (ECD) of human TF, amino acid 1-219 of the mature chain, C-terminal His6-tag (human, UniProt P13726 33-251); assay: Biacore
T1 construct: expressed in a mammalian system; used for ELISA and Biacore; biotinylated by NHS-ester for the Fab ELISA; also called His6-TF-ECD1-219; HumanTF1-219
Give Kd for every item shown.
Only the number, expressed in nM, is required.

Input: Given the binder M1, 10H10 mouse-human chimera (antibody, V domains shown, also called H13/L1; parent chimeric antibody) VH: QVHLQQSGAELMKPGASVKISCKASGYTFITYWIEWVKQRPGHGLEWIGDILPGSGSTNYNENFKGKATFTADSSSNTAYMQLSSLTSEDSAVYYCARSGYYGNSGFAYWGQGTLVTVSA VL: DIVMTQSPSSLTVTAGEKVTMSCKSSQSLLSSGNQKNYLTWYQQIPGQPPKLLIYWASTRESGVPDRFTGSGSGTDFTLTINSVQAEDLAVYYCQNDYTYPLTFGAGTKLELK , what is its reported Kd?
Output: 0.56

Input: Given the binder M19 (antibody, V domains shown, complete MAb; FR4 is its own entry; also called H16/L5) VH: QVQLVQSGAEVKKPGASVKVSCKASGYTFITYWIEWVRQAPGQGLEWMGDILPGSGSTNYNENFKGRVTMTRDTSTSTVYMELSSLRSEDTAVYYCARSGYYGNSGFAYWGQGTLVTVSS VL: DIVMTQTPLSLSVTPGQPASISCKSSQSLLSSGNQKNYLTWYLQKPGQPPQLLIYWASTRESGVPDRFSGSGSGTDFTLKISRVEAEDVGVYYCQNDYTYPLTFGQGTKLEIK , what is its reported Kd?
Output: 0.41

Input: Given the binder M11 (antibody, V domains shown, complete MAb; FR4 is its own entry; also called H15/L4) VH: EVQLVQSGAEVKKPGESLRISCKGSGYTFITYWIEWVRQMPGKGLEWMGDILPGSGSTNYNENFKGHVTISADKSISTAYLQWSSLKASDTAMYYCARSGYYGNSGFAYWGQGTLVTVSS VL: DIVMTQSPLSLPVTPGEPASISCKSSQSLLSSGNQKNYLTWYLQKPGQSPQLLIYWASTRESGVPDRFSGSGSGTDFTLKISRVEAEDVGVYYCQNDYTYPLTFGQGTKLEIK , what is its reported Kd?
Output: 0.37

Input: Given the binder M9 (antibody, V domains shown, complete MAb; FR4 is its own entry; also called H15/L2) VH: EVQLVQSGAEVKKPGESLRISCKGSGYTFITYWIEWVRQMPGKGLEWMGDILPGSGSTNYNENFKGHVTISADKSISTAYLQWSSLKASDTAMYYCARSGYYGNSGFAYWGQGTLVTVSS VL: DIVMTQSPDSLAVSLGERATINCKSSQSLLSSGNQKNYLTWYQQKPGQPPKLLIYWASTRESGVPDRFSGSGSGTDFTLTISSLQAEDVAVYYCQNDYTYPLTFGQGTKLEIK , what is its reported Kd?
Output: 0.61

Input: Given the binder M61 (antibody, V domains shown, complete MAb; FR4 is its own entry; also called H22/L5) VH: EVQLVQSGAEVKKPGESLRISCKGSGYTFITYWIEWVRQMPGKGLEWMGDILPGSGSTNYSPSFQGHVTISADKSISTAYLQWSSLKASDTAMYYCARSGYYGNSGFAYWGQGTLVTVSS VL: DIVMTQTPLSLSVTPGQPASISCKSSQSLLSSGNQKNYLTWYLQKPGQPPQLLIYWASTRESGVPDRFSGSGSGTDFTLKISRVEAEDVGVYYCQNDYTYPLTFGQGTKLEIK , what is its reported Kd?
Output: 0.21
